Answer each item with its documented GI50.
test system: SNB-19 CNS

The following compounds have reported results that may help.
COMPOUND | GI50
COc1ccc(/C=C2\CN(Cc3cn(CCCNc4ccnc5cc(Cl)ccc45)nn3)C/C(=C\c3ccc(OC)c(OC)c3)C2=O)cc1OC | 1.85 µM
COC(=O)C(C)NP(=O)(OCc1ccc(Cn2cnc3c(=O)[nH]c(N)nc32)cc1)Oc1ccccc1 (stereo not given) | > 100 µM
Cn1cccc1-c1cc(-c2cccs2)[nH]c(=O)c1C#N | > 100 µM
CN(C)CCCN(c1nc(C(Cl)(Cl)Cl)ns1)c1nc(C(Cl)(Cl)Cl)ns1 | 2.53 µM
N.N.N.N.N.N.[I-].[Os] | > 100 µM
CN[C@]12CC3(C=CC(=O)C=C3)O[C@@]1(Cc1ccc(OC)cc1)N(C)C(=O)N2 | 3.63 µM

Working through the 4 compounds below one at a time, give GI50 for each.
1. CCOC(=O)c1c(-c2ccccc2)[n+](=O)c2ccc(Cl)cc2n1[O-]
2. O=C(Nc1n[nH]c2nc(-c3ccco3)ccc12)C1CC1
3. C=C1C(=O)O[C@H]2[C@H]1CC/C(COC(=O)CCCCCCCCC(=O)OC/C1=C/CC[C@@]3(C)O[C@H]3[C@H]3OC(=O)C(=C)[C@@H]3CC1)=C\CC[C@@]1(C)O[C@@H]21
4. S=c1nc2[nH]ncc2c(N/N=C/c2ccccc2)[nH]1

Output line:
["10.4 µM", "> 25 µM", "2.45 µM", "> 100 µM"]

====

test system: HS 578T breast; assay: NCI tumour cell line growth inhibition, 48 h
Answer each item with its documented TGI.
Answers are plain numbers, in µM.

The following molecules have reported results that may help.
MOLECULE | READOUT_UNIT | TGI
CCCCCC(O)[C@H]1C(=O)C[C@@H](O[Si](C)(C)C(C)(C)C)[C@@H]1/C=C/CCOCc1ccccc1 (some centres not stated) | µM | 26.4
O=CN1CCN(C(=O)c2cc(Cl)cc(Cl)c2)C1=S | µM | 71.4
O=S(=O)(/N=C(\NO)Nc1ccc(Cl)cc1)c1ccc(S(=O)(=O)c2ccccc2)s1 | µM | 96.9
NCCNc1nc(N2CCCC2)c2nc(Cl)c(NCc3ccccc3)nc2n1 | µM | 12.8
O=C1/C(=C\C(Cl)=C/c2ccc([N+](=O)[O-])cc2)SC(=S)N1CCc1ccc(O)cc1 | µM | 2.04

Working through the 6 molecules below one at a time, give TGI for each.
1. CCN(CC)CCOc1ccc(/C(=C(\C)Cc2ccc(OC)cc2)c2ccc(OC(=O)NCc3ccccc3)cc2)cc1
2. O=C1CCCC2=C(N1)C(=O)C=CC2=O
3. O=[N+]([O-])c1cc(CCl)ccc1CCl
4. COc1ccc(N(CC(=O)NCCC[Te]c2ccccc2)C(=O)CCSC2=C(C)C(=O)c3ccccc3C2=O)cc1
5. Cn1ncc2c(/N=C/c3cccs3)[nH]c(=S)nc21
6. Nc1nc(N)c2c(n1)NC(c1ccccc1)CC(/C=C/c1ccc(Cl)cc1)=N2 (configuration not stated)

Output line:
1. 6.16
2. 79.4
3. 11.4
4. 6.69
5. 77
6. 9.94

Working through the 2 molecules below one at a time, give TGI for each.
1. COc1ccc(/C(C)=C(\c2ccc(Cl)cc2)c2ccc(OCCN3CCCC3)cc2)cc1F
2. Oc1c2cc(Br)cc1CCc1cc(Br)cc(c1O)CC2

Output line:
1: 9.55; 2: 73.4

====

tested on: MALME-3M melanoma
A correct response names exactly one class from active, inactive

Record excerpt, results attached:
MOLECULE | CLASS_ASSIGNMENT
O=C1c2cc3c(cc2-c2c1c1ccc(Cl)cc1c(=O)n2C[C@H](O)[C@@H](O)[C@H](O)CO)OCO3 | active
Cc1n[nH]c(=S)n1/N=C/c1ccc(F)c(Oc2ccccc2)c1 | inactive

Input line: Lab log entry: c1cc(OCCN2CCCCCC2)ccc1CNc1ccc2nc(CCC3CCCCC3)[nH]c2c1 — outcome as called in the assay?
Output line: inactive

Input line: Lab log entry: CC1(C)CC(=O)C2=C(C1)NC(SSC1=C(C#N)C(c3ccc(F)cc3)C3=C(CC(C)(C)CC3=O)N1)=C(C#N)C2c1ccc(F)cc1 (stereo not drawn) — outcome as called in the assay?
Output line: inactive

Input line: Lab log entry: S=c1nc2[nH]ncc2c(N/N=C/c2ccccc2)[nH]1 — outcome as called in the assay?
Output line: inactive

Input line: Lab log entry: COc1ccc(/C=C2\CN(Cc3cn(CCCNc4ccnc5cc(Cl)ccc45)nn3)C/C(=C\c3ccc(OC)c(OC)c3)C2=O)cc1OC — outcome as called in the assay?
Output line: inactive

Input line: Lab log entry: C=C1C(=O)O[C@H]2[C@H]1CC/C(Cn1cc(Cn3ccc4ccccc43)nn1)=C\CC[C@@]1(C)O[C@@H]21 — outcome as called in the assay?
Output line: inactive

Input line: Lab log entry: CC(=O)O[C@H]1C(=O)O[C@@H]2C[C@H]3C(C)=CC(=O)[C@@H](O)[C@]3(C)[C@H]3[C@@]4(O)OC[C@]32[C@@H]1[C@@H](C)[C@H]4O — outcome as called in the assay?
Output line: active

====

test system: PC-3 prostate; assay: NCI tumour cell line growth inhibition, 48 h
Answer each item with its documented TGI.

COMPOUND | RECORDED_RESULT
CCOC(=O)C(Cc1c2ccccc2cc2ccccc12)(NC(C)=O)C(=O)OCC | > 100 µM

Working through the 4 compounds below one at a time, give TGI for each.
1. O=C1c2cc3c(cc2-c2c1c1ccc(Cl)cc1c(=O)n2C[C@H](O)[C@@H](O)[C@H](O)CO)OCO3
2. CCOC(=O)/C(=C/c1ccc([N+](=O)[O-])cc1)C(=O)c1ccccc1
3. COc1ccc(-c2nn(-c3cccc(NC(=O)Nc4ccc(Cl)c(C(F)(F)F)c4)c3)cc2-c2ccncc2)cc1Cl
4. Cc1cc(O)c(C(c2cccnc2)c2c(O)cc(C)[nH]c2=O)c(=O)[nH]1

Output line:
["> 100 µM", "6.11 µM", "6.85 µM", "> 100 µM"]

Working through the 4 compounds below one at a time, give TGI for each.
1. C[C@]12CCC(=O)C=C1CC[C@@H]1[C@@H]2[C@@H](O)C[C@@]2(C)[C@H]1CC[C@]2(O)C(=O)CO
2. CN1CCC[C@@H]1CCO[C@](C)(c1ccccc1)c1ccc(Cl)cc1
3. CCCc1cc2cc(-n3nc(C)c4c3CC(C)(C)CC4=O)cc(NC3CCC(O)CC3)c2c(=O)[nH]1 (centres undefined)
4. COc1c2c(cc3c1C(O)N1CC[C@]34[C@H]3O[C@H]3[C@H](OC)C[C@@H]14)OCO2 (some centres undefined)

Output line:
["> 100 µM", "17 µM", "> 100 µM", "> 100 µM"]

====

tested on: A549 NSCLC; assay: NCI tumour cell line growth inhibition, 48 h
Answer each item with its documented TGI.

The following molecules have reported results that may help.
MOLECULE | QUANTITY_MEASURED | RECORDED_RESULT
Nc1ccccc1N/C(=C\C(=O)C(Cl)(Cl)Cl)c1ccccc1 | TGI | > 100 µM
C=C[C@]1(C)CCC2=C(CCC3C2(C)CCC[C@]3(C)CO)C1 (stereo not given in full) | TGI | > 100 µM
CC1(C)CCC2(C(=O)OC3OC(CO)C(O)C(O)C3O)CCC3(C)C(=CCC4C5(C)CCC(OC6OC(CO)C(O)C(O)C6O)C(C)(C)C5CCC43C)C2C1 (stereo not given) | TGI | > 25 µM
COc1cc(-c2cc(=O)c3ccccc3o2)ccc1N | TGI | > 100 µM
C=CCNC(=S)N1c2ccccc2NC(=O)CC1C (stereo not given) | TGI | > 100 µM

Working through the 2 molecules below one at a time, give TGI for each.
1. Cn1c(=O)c2c(no[n+]2[O-])n(C)c1=O
2. CC(=O)N(C)c1ccc2c(ccc[n+]2[O-])c1[N+](=O)[O-]

Output line:
> 100 µM
> 100 µM

Working through the 7 molecules below one at a time, give TGI for each.
1. COC(=O)C1=NN2c3ccccc3C(=O)OCCC2(C)C1 (stereo not given)
2. C=C1C(=O)O[C@H]2[C@H]1CC/C(COC(=O)CCCCCCCCC(=O)OC/C1=C/CC[C@@]3(C)O[C@H]3[C@H]3OC(=O)C(=C)[C@@H]3CC1)=C\CC[C@@]1(C)O[C@@H]21
3. CCCc1cc2cc(-n3nc(C)c4c3CC(C)(C)CC4=O)cc(NC3CCC(O)CC3)c2c(=O)[nH]1 (stereo not given)
4. COC(=O)[C@@H]1C[C@H]([Se]c2ccccc2)CN1S(=O)(=O)c1ccc(C)cc1
5. CN=C1Nc2ccc(Cl)cc2C(c2ccccc2)=NN1C
6. COC(=O)/C(C#N)=C1\CCC(O)N1C (stereo not given)
7. O=[N+]([O-])c1cc(CCl)ccc1CCl

Output line:
["> 100 µM", "22.1 µM", "> 100 µM", "> 100 µM", "> 100 µM", "> 100 µM", "16.9 µM"]

Ref: PubChem BioAssay (NCI)
